The reported measurements were obtained from ChEMBL document CHEMBL4028801.

target: UniProt O15439; experiment: Inhibition of human MRP4 overexpressed in Sf9 cell membrane vesicles assessed as uptake of [3H]-estradiol-17beta-D-glucuronide in presence of ATP and GSH measured after 20 mins by membrane vesicle transport assay
Structures can show the parent of a compound that is named as a salt.
value-type: IC50

Request body: readout IC50, system UniProt O15439, query CN1C(C(=O)Nc2ccccn2)=C(O)c2sccc2S1(=O)=O [TENOXICAM] . Return the value.
> 133 µM

Recorded IC50 for O=C1[C@H](CC[C@H](O)c2ccc(F)cc2)[C@@H](c2ccc(O)cc2)N1c1ccc(F)cc1 [EZETIMIBE] with UniProt O15439, please?
> 133 µM

What is its IC50 for UniProt O15439? Entry: COc1cc2c(cc1OC)C(=O)C(CC1CCN(Cc3ccccc3)CC1)C2 (centres undefined) [DONEPEZIL]
72.9 µM

Param readout= IC50; system= UniProt O15439; entry= CC(C)=CCC1C(=O)N(c2ccccc2)N(c2ccccc2)C1=O [FEPRAZONE] ; returns value.
> 133 µM

Lab note: need IC50 for OCCOCCN1CCN(C2=Nc3ccccc3Sc3ccccc32)CC1 [QUETIAPINE FUMARATE] on UniProt O15439, anyone have it?
> 133 µM

API: value(readout=IC50, system=UniProt O15439) for record "Nc1nc(N)c2nc(-c3ccccc3)c(N)nc2n1"
> 133 µM

Hi! What's the reported IC50 for "CC(C)(C)NC(=O)[C@@H]1C[C@@H]2CCCC[C@@H]2CN1C[C@@H](O)[C@H](Cc1ccccc1)NC(=O)[C@H](CC(N)=O)NC(=O)c1ccc2ccccc2n1" on UniProt O15439?
59 µM

Hi! What's the reported IC50 for CC(C)c1nc(N(C)S(C)(=O)=O)nc(-c2ccc(F)cc2)c1/C=C/[C@@H](O)C[C@@H](O)CC(=O)O [ROSUVASTATIN CALCIUM] on UniProt O15439?
26.8 µM

// lookup IC50 | system=UniProt O15439 | key= CN(C)CCCN1c2ccccc2CCc2ccc(Cl)cc21 [CLOMIPRAMINE]
> 133 µM

###

target: ATP-binding cassette sub-family C member 4 (Homo sapiens); test: Inhibition of human MRP4 overexpressed in Sf9 cell membrane vesicles assessed as uptake of [3H]-estradiol-17beta-D-glucuronide in presence of ATP and GSH measured after 20 mins by membrane vesicle transport assay
Sequence (O15439 whole entry): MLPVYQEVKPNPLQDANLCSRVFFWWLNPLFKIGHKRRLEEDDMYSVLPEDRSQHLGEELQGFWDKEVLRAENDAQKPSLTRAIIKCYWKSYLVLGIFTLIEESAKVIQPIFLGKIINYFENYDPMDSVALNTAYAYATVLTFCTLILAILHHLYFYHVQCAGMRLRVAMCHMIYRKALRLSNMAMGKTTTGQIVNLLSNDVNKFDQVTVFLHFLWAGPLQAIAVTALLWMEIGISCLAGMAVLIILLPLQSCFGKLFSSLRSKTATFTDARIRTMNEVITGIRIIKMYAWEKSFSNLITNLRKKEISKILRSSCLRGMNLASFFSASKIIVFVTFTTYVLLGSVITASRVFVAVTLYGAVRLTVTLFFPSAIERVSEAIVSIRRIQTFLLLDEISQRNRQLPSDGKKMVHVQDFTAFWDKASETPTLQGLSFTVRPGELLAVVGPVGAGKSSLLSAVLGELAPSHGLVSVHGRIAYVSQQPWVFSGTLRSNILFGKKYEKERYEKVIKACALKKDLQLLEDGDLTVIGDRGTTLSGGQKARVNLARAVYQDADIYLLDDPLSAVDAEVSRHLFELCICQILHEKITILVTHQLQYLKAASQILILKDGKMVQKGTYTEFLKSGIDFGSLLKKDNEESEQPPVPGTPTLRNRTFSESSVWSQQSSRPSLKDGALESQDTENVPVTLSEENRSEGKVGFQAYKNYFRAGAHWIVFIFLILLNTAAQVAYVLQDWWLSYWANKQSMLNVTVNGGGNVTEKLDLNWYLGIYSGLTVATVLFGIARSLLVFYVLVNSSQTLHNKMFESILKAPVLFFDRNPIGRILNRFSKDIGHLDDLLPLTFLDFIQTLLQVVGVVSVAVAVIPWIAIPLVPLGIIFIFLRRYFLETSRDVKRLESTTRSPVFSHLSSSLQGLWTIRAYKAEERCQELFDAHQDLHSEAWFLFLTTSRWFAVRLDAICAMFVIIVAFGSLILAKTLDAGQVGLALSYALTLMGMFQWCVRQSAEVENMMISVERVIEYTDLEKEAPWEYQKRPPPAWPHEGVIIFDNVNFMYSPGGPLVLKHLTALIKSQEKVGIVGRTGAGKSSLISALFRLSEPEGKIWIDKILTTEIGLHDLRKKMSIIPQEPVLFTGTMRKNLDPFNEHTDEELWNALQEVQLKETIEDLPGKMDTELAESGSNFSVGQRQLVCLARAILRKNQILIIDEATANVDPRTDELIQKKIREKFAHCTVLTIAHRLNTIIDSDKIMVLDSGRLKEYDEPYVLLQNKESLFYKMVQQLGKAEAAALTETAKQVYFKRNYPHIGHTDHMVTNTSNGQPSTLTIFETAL
pIC50: −log10 of the molar value. Where a name gives a salt, the structure may show the parent alone.
value-type: pIC50

# value lookup — system ATP-binding cassette sub-family C member 4 (Homo sapiens), readout pIC50, item CC(=O)Oc1ccccc1C(=O)Nc1ncc([N+](=O)[O-])s1 [NITAZOXANIDE]
< 3.88

What measured pIC50 is associated with CC(C)n1c(/C=C/C(O)CC(O)CC(=O)O)c(-c2ccc(F)cc2)c2ccccc21 (stereo not drawn) on ATP-binding cassette sub-family C member 4 (Homo sapiens)?
< 3.88

Hi! What's the reported pIC50 for "CCCCC[C@H](O)/C=C/[C@@H]1[C@@H](C/C=C\CCCC(=O)O)[C@@H](O)C[C@H]1O" on ATP-binding cassette sub-family C member 4 (Homo sapiens)?
5.15

What is its pIC50 for ATP-binding cassette sub-family C member 4 (Homo sapiens)? Entry: CN(C)CCC=C1c2ccccc2COc2ccccc21 [DOXEPIN]
< 3.88

Form field: pIC50 recorded for "O=C(O)Cc1ccc(-c2ccccc2)cc1" with ATP-binding cassette sub-family C member 4 (Homo sapiens) (enter value)
5.09

ATP-binding cassette sub-family C member 4 (Homo sapiens) / pIC50 / CCCCc1oc2ccc(NS(C)(=O)=O)cc2c1C(=O)c1ccc(OCCCN(CCCC)CCCC)cc1.Cl [DRONEDARONE HYDROCHLORIDE] : value?
< 3.88

Request - read-out pIC50 | tested on ATP-binding cassette sub-family C member 4 (Homo sapiens) | compound "NC(=O)CN1CCCC1=O"
< 3.88

GET /values?readout=pIC50&system=ATP-binding cassette sub-family C member 4 (Homo sapiens)&item= "NC(=O)c1ncn([C@@H]2O[C@H](CO)[C@@H](O)[C@H]2O)c1O"
< 3.88

pIC50 of COc1cccc2c1C(=O)c1c(O)c3c(c(O)c1C2=O)C[C@@](O)(C(=O)CO)C[C@@H]3O[C@H]1C[C@H](N)[C@@H](O)[C@H](C)O1 [EPIRUBICIN HYDROCHLORIDE] on ATP-binding cassette sub-family C member 4 (Homo sapiens)?
< 3.88

# value lookup — system ATP-binding cassette sub-family C member 4 (Homo sapiens), readout pIC50, item CC(C)(Oc1ccc(C2CC2(Cl)Cl)cc1)C(=O)O (stereo not drawn) [CIPROFIBRATE]
< 3.88

Param readout= pIC50; system= ATP-binding cassette sub-family C member 4 (Homo sapiens); entry= COc1c(C)c2c(c(O)c1C/C=C(\C)CCC(=O)OCCN1CCOCC1)C(=O)OC2 [MYCOPHENOLATE MOFETIL] ; returns value.
4.08

ATP-binding cassette sub-family C member 4 (Homo sapiens) / pIC50 / CC(C(=O)O)c1ccc2c(c1)[nH]c1ccc(Cl)cc12 (stereo not drawn) : value?
5.52

Form entry - test system: ATP-binding cassette sub-family C member 4 (Homo sapiens); read-out: pIC50; compound: "O=C(NC1CCN(CCc2c[nH]c3ccccc23)CC1)c1ccccc1"
< 3.88

Lookup: pIC50 / ATP-binding cassette sub-family C member 4 (Homo sapiens) / "CCc1oc2ccccc2c1C(=O)c1cc(Br)c(O)c(Br)c1"
4.77

API: value(readout= pIC50, system= ATP-binding cassette sub-family C member 4 (Homo sapiens), query= CCN(CC)CCNC(=O)c1cc(Cl)c(N)cc1OC [METOCLOPRAMIDE] )
< 3.88

Provide the documented pIC50 with ATP-binding cassette sub-family C member 4 (Homo sapiens) as the system for "O=C(Cn1ccnc1[N+](=O)[O-])NCc1ccccc1"
< 3.88

Value wanted: pIC50 (ATP-binding cassette sub-family C member 4 (Homo sapiens)) of entry NC(=O)NO [HYDROXYUREA]
< 3.88

What reported pIC50 corresponds to O=c1n(CCCN2CCN(c3cccc(Cl)c3)CC2)nc2ccccn12 [TRAZODONE HYDROCHLORIDE] on ATP-binding cassette sub-family C member 4 (Homo sapiens)?
< 3.88

// map Cn1nnc2c(C(N)=O)ncn2c1=O [TEMOZOLOMIDE] to recorded pIC50 (system: ATP-binding cassette sub-family C member 4 (Homo sapiens))
< 3.88

// map "CO[C@H]1C[C@@H]2CC[C@@H](C)[C@@](O)(O2)C(=O)C(=O)N2CCCC[C@H]2C(=O)O[C@H]([C@H](C)C[C@@H]2CC[C@@H](OCCO)[C@H](OC)C2)CC(=O)[C@H](C)/C=C(\C)[C@@H](O)[C@@H](OC)C(=O)[C@H](C)C[C@H](C)/C=C/C=C/C=C/1C" to recorded pIC50 (system: ATP-binding cassette sub-family C member 4 (Homo sapiens))
4.02

So what pIC50 did "C[C@@H](O)[C@H]1C(=O)N2C(C(=O)O)=C(S[C@@H]3CN[C@H](C(=O)N(C)C)C3)[C@H](C)[C@H]12" get with ATP-binding cassette sub-family C member 4 (Homo sapiens)?
< 3.88

Checklist item: pIC50 tested on ATP-binding cassette sub-family C member 4 (Homo sapiens), entry CC[C@H]1OC(=O)[C@H](C)[C@@H](O[C@H]2C[C@@](C)(OC)[C@@H](O)[C@H](C)O2)[C@H](C)[C@@H](O[C@@H]2O[C@H](C)C[C@H](N(C)C)[C@H]2O)[C@](C)(O)C[C@@H](C)C(=O)[C@H](C)[C@@H](O)[C@]1(C)O [ERYTHROMYCIN] , value?
< 3.88

Lab request: please report pIC50 under test system ATP-binding cassette sub-family C member 4 (Homo sapiens) for "COc1ccc2cccc(CCNC(C)=O)c2c1"
< 3.88
